# Tested on: 313798-341-R-J2-PDC spheroids, viability
# Method: Anticancer human tumor 313798-341-R-J2-PDC patient-derived cervical squamous cell carcinoma cell line growth inhibition [PI3K]
# Recorded Conditions: second compound 1 µM; first compound 0.316 µM; stronger effect = lower value; spheroids with HUVEC and MSC
Label class 1 when viability, T/C is strictly below 80%; otherwise label class 0.

Molecule	Discrete Label
CC1(C)CCC(Nc2ncc(C(F)(F)F)c(-c3c[nH]c4c(P(C)(C)=O)c(C#N)ccc34)n2)CN1 (stereo not given) + CC(Nc1ncnc2nc[nH]c12)c1cc2cccc(Cl)c2c(=O)n1-c1ccccc1	class 1
CC1(C)CCC(CN2CCN(c3ccc(C(=O)NS(=O)(=O)c4ccc(NCC5CCOCC5)c([N+](=O)[O-])c4)c(Oc4cnc5[nH]ccc5c4)c3)CC2)=C(c2ccc(Cl)cc2)C1 + CC(Nc1ccc2c(c1)OCCn1cc(N3C(=O)OCC3C(F)F)nc1-2)C(N)=O	class 1
C=CC(=O)N1CCN(c2nc(=O)n(-c3c(C)ccnc3C(C)C)c3nc(-c4c(O)cccc4F)c(F)cc23)C(C)C1 (stereo not given) + CC(Nc1ncnc2nc[nH]c12)c1cc2cccc(Cl)c2c(=O)n1-c1ccccc1	class 0
C#Cc1c(F)ccc2cc(O)cc(-c3ncc4c(N5CC6CCC(C5)N6)nc(OCC56CCCN5CC(F)C6)nc4c3F)c12 (stereo not given) + CC(Nc1ncnc2nc[nH]c12)c1cc2cccc(Cl)c2c(=O)n1-c1ccccc1	class 0

###

# System: 313798-341-R-J2-PDC spheroids, viability
# Method: Anticancer human tumor 313798-341-R-J2-PDC cell line growth inhibition [PI3K];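 note: spheroids exposed to compounds for seven days; 100% = DMSO vehicle control viability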
# Recorded Conditions: second compound 1 µM; first compound 0.00316 µM; stronger effect = lower value; spheroids with HUVEC and MSC
Label yes (1) when viability, T/C is strictly below 80%; otherwise label no (0).

Compound	Discrete Label
CC(=O)c1c(C)c2cnc(Nc3ccc(N4CCNCC4)cn3)nc2n(C2CCCC2)c1=O + CC(Nc1ccc2c(c1)OCCn1cc(N3C(=O)OCC3C(F)F)nc1-2)C(N)=O	yes (1)
CC(C)n1nc(-c2ccc3oc(N)nc3c2)c2c(N)ncnc21 + COc1c(OCCCN2CCOCC2)ccc2c3n(c(=NC(=O)c4cnc(N)nc4)nc12)CCN3	yes (1)
CC(=O)c1c(C)c2cnc(Nc3ccc(N4CCNCC4)cn3)nc2n(C2CCCC2)c1=O + Cc1nc(NC(=O)N2CCCC2C(N)=O)sc1-c1ccnc(C(C)(C)C(F)(F)F)c1	no (0)
CCN1CCN(Cc2ccc(Nc3ncc(F)c(-c4cc(F)c5nc(C)n(C(C)C)c5c4)n3)nc2)CC1 + CC(Nc1ccc2c(c1)OCCn1cc(N3C(=O)OCC3C(F)F)nc1-2)C(N)=O	yes (1)
CC(C)n1nc(-c2ccc3oc(N)nc3c2)c2c(N)ncnc21 + CC(Nc1ncnc2nc[nH]c12)c1cc2cccc(Cl)c2c(=O)n1-c1ccccc1	no (0)
CCN1CCN(Cc2ccc(Nc3ncc(F)c(-c4cc(F)c5nc(C)n(C(C)C)c5c4)n3)nc2)CC1 + Cc1nc(NC(=O)N2CCCC2C(N)=O)sc1-c1ccnc(C(C)(C)C(F)(F)F)c1	no (0)
CCN1CCN(Cc2ccc(Nc3ncc(F)c(-c4cc(F)c5nc(C)n(C(C)C)c5c4)n3)nc2)CC1 + COc1c(OCCCN2CCOCC2)ccc2c3n(c(=NC(=O)c4cnc(N)nc4)nc12)CCN3	yes (1)
Cn1ncnc1[C@H]1c2n[nH]c(=O)c3cc(F)cc(c23)N[C@@H]1c1ccc(F)cc1 + COc1c(OCCCN2CCOCC2)ccc2c3n(c(=NC(=O)c4cnc(N)nc4)nc12)CCN3	yes (1)
Cn1ncnc1[C@H]1c2n[nH]c(=O)c3cc(F)cc(c23)N[C@@H]1c1ccc(F)cc1 + Cc1nc(NC(=O)N2CCCC2C(N)=O)sc1-c1ccnc(C(C)(C)C(F)(F)F)c1	no (0)
Cn1ncnc1[C@H]1c2n[nH]c(=O)c3cc(F)cc(c23)N[C@@H]1c1ccc(F)cc1 + CC(Nc1ccc2c(c1)OCCn1cc(N3C(=O)OCC3C(F)F)nc1-2)C(N)=O	yes (1)
CC(=O)c1c(C)c2cnc(Nc3ccc(N4CCNCC4)cn3)nc2n(C2CCCC2)c1=O + CC(Nc1ncnc2nc[nH]c12)c1cc2cccc(Cl)c2c(=O)n1-c1ccccc1	no (0)
Cn1ncnc1[C@H]1c2n[nH]c(=O)c3cc(F)cc(c23)N[C@@H]1c1ccc(F)cc1 + CC(Nc1ncnc2nc[nH]c12)c1cc2cccc(Cl)c2c(=O)n1-c1ccccc1	no (0)
CCN1CCN(Cc2ccc(Nc3ncc(F)c(-c4cc(F)c5nc(C)n(C(C)C)c5c4)n3)nc2)CC1 + CC(Nc1ncnc2nc[nH]c12)c1cc2cccc(Cl)c2c(=O)n1-c1ccccc1	no (0)
CC(C)n1nc(-c2ccc3oc(N)nc3c2)c2c(N)ncnc21 + CC(Nc1ccc2c(c1)OCCn1cc(N3C(=O)OCC3C(F)F)nc1-2)C(N)=O	yes (1)
CC(C)n1nc(-c2ccc3oc(N)nc3c2)c2c(N)ncnc21 + Cc1nc(NC(=O)N2CCCC2C(N)=O)sc1-c1ccnc(C(C)(C)C(F)(F)F)c1	yes (1)
